Consider the following binders and their measured ELISA readings.
molecular target: biotinylated SARS-CoV-2 S1 variant P.1 (Example 5) (SARS-CoV-2) (UniProt P0DTC2); assay: phage ELISA screening
// no unit string in output, number only

BINDER: 13-5 (antibody, V domains shown) VH: QVQLVESGGGVVQPGRSLRLSCAASGFIFRSYAMHWVRQAPGKGLEWVAVISYDGSSKYYADSVKGRFTISRDNSKNTLYLQMNSLRAEDTAVYYCARPLGGGYQDAFDIWGQGTLVTVSS VL: EIVLTQSPATLSLSPGERATLSCRASQSIGSYLAWYQQKPGQAPRLLIYDVSNRATGIPARFSGSGSGTDFTLTISSFEPEDFAVYYCQQRHHWPPVTFGGGTKVEIK
ELISA: 10.3
--
BINDER: 13-1 (antibody, V domains shown) VH: QVQLVESGGGVVQPGRSLRLSCAASGFTFSSYSMHWVRQAPGKGLEWVAVISYDGRNQYYADSVKGRFTISRDNSKNTLYLQMNSLRAEDTAVYYCAKGYGGNYYYMDGWGQGTLVTVSS VL: EIVLTQSPATLSLSPGERATLSCRASQSVGDFLAWYQQKPGQAPRLLIYDTSNRATGIPARFSGSGSGTDFTLTISSLEPEDFAVYYCQQRSIRGTFGGGTKVEIK
ELISA: 22.2
--
BINDER: 13-4 (antibody, V domains shown) VH: QVQLVESGGGVVQPGRSLRLSCAASGFAFDDYAMHWVRQAPGKGLEWVAVISYDGSNKYYADSVKGRFTISRDNSKNTLYLQMNSLRAEDTAVYYCATLGYGDYPDYWGQGTLVTVSS VL: DIQMTQSPSSLSASVGDRVTITCRASQSITRYLNWYQQKPGKAPKLLIYAASSLQSGVPSRFSGSGSGTDFTLTISSLQPEDFATYYCQQTYNFPHTFGQGTKVEIK
ELISA: 18.9

## Input Fill blank: measured ELISA of the binder 13-3 (antibody, V domains shown) VH: QVQLVESGGGVVQPGRSLRLSCAASGFSFNNHAMHWVRQAPGKGLEWVAVISYDGSDKYYADSVKGRFTISRDNSKNTLYLQMNSLRAEDTAVYYCARNLLRGYGMDVWGQGTLVTVSS VL: DIQMTQSPSSLSASVGDRVTITCRASQSIGDYLNWYQQKPGKAPKLLIYEASSLQSGVPSRFSGSGSGTDFTLTISSLQPEDFATYYCLHTYLPPYSFGQGTKVEIK is ____.
## Output 19.5
